System: HCV replicon (BB7 sequence) in Huh-7-Clone A cells
Assay: HCV replicon assay: ELISA of NS5A protein in replicon-containing cells (Inhibition of Viral RNA Replication)
Format: cell-based
Settings: Hepatitis C virus; HCV replicon assay; ranges of EC50; read-out: Replicon
The compounds listed here are annotated with their EC50.

Reference set (3 entries):
[[record]]
structure = "CNC(=O)c1c(-c2ccc(F)cc2)oc2cc(-c3c(C)nn(C)c3C)c(OC(C)C)cc12"
result = "< 10 µM"

[[record]]
structure = "CNC(=O)c1c(-c2ccc(F)cc2)oc2cc(N(C)S(C)(=O)=O)c(OCc3ccc(C(=O)O)cc3)cc12"
result = "< 10 µM"

[[record]]
structure = "CNC(=O)c1c(-c2ccc(F)cc2)oc2cc(-c3c(C4CC4)noc3COC)c(OC)cc12"
result = "< 1 µM"


Q: Identify EC50 associated with the compound `CNC(=O)c1c(-c2ccc(F)cc2)oc2cc(N(C)S(C)(=O)=O)c(OCC3CC3)cc12`
A: < 1 µM
